Source of measurements: paper PMC5564600

Molecular target: panel of 442 kinases (Homo sapiens)
Construct: purchased Ambit Biosciences (scanMAXX KINOMEscan)
Test: biochemical
Assay type: binding
Conditions: kinase SRPK2; 1 µM; read-out: SRPK2 (% of control at 1 µM)
# remaining activity at 1 µM values compiled below
I only need the number, in %, no unit after it.

Sure, the documented remaining activity at 1 µM for "Nc1cc(C(F)(F)F)c(-c2cc(N3CCOCC3)nc(N3CCOCC3)n2)cn1" is 78

---

Assay: Plasma pharmacokinetics in rats
Conditions: male, Sprague-Dawley, rat, po, 10 mg/kg
endpoint: bioavailability
I'd appreciate it if you wrote the number followed by its unit.

The recorded bioavailability for "COc1cccc2c1nc(C(F)F)n2-c1nc(N2CCOCC2)nc(N2CCN(S(=O)(=O)CCN(C)C)CC2)n1" is 8.1%

---

Target: panel of 442 kinases (Homo sapiens, UniProt Q9H3Y6)
Construct: purchased Ambit Biosciences (scanMAXX KINOMEscan)
Sequence (Q9H3Y6 whole entry): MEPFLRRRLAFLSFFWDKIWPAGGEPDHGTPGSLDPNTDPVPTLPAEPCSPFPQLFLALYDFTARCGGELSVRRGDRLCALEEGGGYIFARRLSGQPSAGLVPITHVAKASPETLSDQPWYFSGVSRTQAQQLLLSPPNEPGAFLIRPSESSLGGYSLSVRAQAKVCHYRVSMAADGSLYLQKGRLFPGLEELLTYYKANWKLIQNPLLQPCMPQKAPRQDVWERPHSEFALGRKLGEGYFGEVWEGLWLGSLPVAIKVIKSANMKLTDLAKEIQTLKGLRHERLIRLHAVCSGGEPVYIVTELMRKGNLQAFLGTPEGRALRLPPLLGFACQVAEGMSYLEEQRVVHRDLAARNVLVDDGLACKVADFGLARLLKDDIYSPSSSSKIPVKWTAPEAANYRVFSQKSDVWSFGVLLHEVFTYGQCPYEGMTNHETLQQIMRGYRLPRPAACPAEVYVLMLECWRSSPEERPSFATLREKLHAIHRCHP
Experiment: biochemical
Assay type: binding
Details: kinase SRMS; 1 µM; read-out: SRMS (% of control at 1 µM)
endpoint: remaining activity at 1 µM

Cn1c(=O)n(-c2ccc(C(C)(C)C#N)cc2)c2c3cc(-c4cnc5ccccc5c4)ccc3ncc21	88%
Nc1cc(C(F)(F)F)c(-c2cc(N3CCOCC3)nc(N3CCOCC3)n2)cn1	100%
FC(F)c1nc2ccccc2n1-c1nc(N2CCOCC2)nc(N2CCOCC2)n1	80%

Field: next compound
Note to self: remaining activity at 1 µM of "COc1ncc(-c2ccc3nccc(-c4ccnnc4)c3c2)cc1NS(=O)(=O)c1ccc(F)cc1F" with panel of 442 kinases (Homo sapiens, UniProt Q9H3Y6) was 90%

---

Biological target: panel of 442 kinases (Homo sapiens, UniProt P53350)
Construct: purchased Ambit Biosciences (scanMAXX KINOMEscan)
Sequence (P53350 whole entry): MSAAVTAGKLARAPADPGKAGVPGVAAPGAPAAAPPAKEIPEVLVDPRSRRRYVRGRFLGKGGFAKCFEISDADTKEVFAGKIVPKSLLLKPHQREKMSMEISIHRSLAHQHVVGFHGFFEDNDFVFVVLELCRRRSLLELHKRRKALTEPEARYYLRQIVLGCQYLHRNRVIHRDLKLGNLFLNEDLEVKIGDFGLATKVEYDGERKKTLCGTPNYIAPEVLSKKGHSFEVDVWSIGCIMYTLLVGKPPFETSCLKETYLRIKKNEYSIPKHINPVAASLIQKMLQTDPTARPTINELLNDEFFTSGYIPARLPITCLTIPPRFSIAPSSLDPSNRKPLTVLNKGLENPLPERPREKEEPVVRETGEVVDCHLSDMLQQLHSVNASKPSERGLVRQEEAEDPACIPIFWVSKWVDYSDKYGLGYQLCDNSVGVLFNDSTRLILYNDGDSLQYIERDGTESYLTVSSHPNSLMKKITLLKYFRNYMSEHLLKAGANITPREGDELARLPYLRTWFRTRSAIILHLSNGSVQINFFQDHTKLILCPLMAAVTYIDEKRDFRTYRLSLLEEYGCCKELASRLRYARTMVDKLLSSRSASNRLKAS
Assay: biochemical
Type: binding
Conditions: kinase PLK1; 1 µM; read-out: PLK1 (% of control at 1 µM)
endpoint: remaining activity at 1 µM (%)
Record the value in %, omitting the unit from your answer.

Examples with answers:
Nc1cc(C(F)(F)F)c(-c2cc(N3CCOCC3)nc(N3CCOCC3)n2)cn1 [Buparlisib]	65
COc1ncc(-c2ccc3nccc(-c4ccnnc4)c3c2)cc1NS(=O)(=O)c1ccc(F)cc1F [Omipalisib]	97
FC(F)c1nc2ccccc2n1-c1nc(N2CCOCC2)nc(N2CCOCC2)n1 [ZSTK474]	62

As a next step, examine the compound that follows.
Measured remaining activity at 1 µM, Cn1c(=O)n(-c2ccc(C(C)(C)C#N)cc2)c2c3cc(-c4cnc5ccccc5c4)ccc3ncc21 [Dactolisib] : 93

---

Biological target: panel of 442 kinases (Homo sapiens, UniProt O15197)
Construct: purchased Ambit Biosciences (scanMAXX KINOMEscan)
Sequence (O15197 32-1021): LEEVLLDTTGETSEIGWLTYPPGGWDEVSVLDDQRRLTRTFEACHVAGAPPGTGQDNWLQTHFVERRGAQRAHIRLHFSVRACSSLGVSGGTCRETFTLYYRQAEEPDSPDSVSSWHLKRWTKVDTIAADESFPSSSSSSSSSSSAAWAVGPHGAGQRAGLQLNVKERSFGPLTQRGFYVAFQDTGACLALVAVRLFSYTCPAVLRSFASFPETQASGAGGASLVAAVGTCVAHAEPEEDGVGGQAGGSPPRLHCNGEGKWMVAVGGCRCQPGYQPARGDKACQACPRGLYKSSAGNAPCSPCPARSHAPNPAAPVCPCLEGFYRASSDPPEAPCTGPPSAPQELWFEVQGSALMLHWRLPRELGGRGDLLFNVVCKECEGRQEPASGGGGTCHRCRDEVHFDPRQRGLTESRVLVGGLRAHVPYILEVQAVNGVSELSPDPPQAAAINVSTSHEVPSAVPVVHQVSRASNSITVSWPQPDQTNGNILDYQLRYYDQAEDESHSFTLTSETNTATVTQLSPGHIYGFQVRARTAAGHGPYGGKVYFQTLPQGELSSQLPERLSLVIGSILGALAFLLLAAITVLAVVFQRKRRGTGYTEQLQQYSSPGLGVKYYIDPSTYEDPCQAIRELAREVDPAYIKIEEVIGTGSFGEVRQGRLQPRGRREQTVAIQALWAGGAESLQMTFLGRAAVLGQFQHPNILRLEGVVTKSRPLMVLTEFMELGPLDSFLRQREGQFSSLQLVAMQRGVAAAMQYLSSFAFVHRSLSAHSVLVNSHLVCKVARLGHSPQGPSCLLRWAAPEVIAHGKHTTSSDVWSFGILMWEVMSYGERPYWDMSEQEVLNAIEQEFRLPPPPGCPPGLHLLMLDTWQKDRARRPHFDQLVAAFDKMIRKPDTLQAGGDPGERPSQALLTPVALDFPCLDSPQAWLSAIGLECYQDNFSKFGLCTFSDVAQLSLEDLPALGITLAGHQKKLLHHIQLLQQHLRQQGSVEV
Test: biochemical
Assay type: binding
Conditions: EPHB6; 1 µM; read-out: % of control at 1 µM
endpoint: remaining activity at 1 µM

Illustrative cases are given below, each with its answer.
FC(F)c1nc2ccccc2n1-c1nc(N2CCOCC2)nc(N2CCOCC2)n1 [ZSTK474]	100%
COc1ncc(-c2ccc3nccc(-c4ccnnc4)c3c2)cc1NS(=O)(=O)c1ccc(F)cc1F [Omipalisib]	57%
Cn1c(=O)n(-c2ccc(C(C)(C)C#N)cc2)c2c3cc(-c4cnc5ccccc5c4)ccc3ncc21 [Dactolisib]	100%

Below: the item to evaluate.
Reported remaining activity at 1 µM (panel of 442 kinases (Homo sapiens, UniProt O15197)) for entry Nc1cc(C(F)(F)F)c(-c2cc(N3CCOCC3)nc(N3CCOCC3)n2)cn1 [Buparlisib] is 76%
